- System: Mus musculus
- Protocol: Anti-schizophrenic activity in mouse assessed inhibition of L-687414-induced hyperlocomotion at 30 mg/kg, ip pretreated for 15 mins followed by L-687414 addition measured at 5 mins interval for 30 mins relative to control
- Type: functional
Observable: inhibition in vivo at 30 mg/kg

In [3]: df
Out[3]:
                                 cpd_smiles  assay_target  experimental_result
0  Cc1ncc(-c2ccc3c(c2)N(c2cnc4c(c2)C(C)(C)C(=O)N4C)C(=O)C3(C)C)cn1  Mus musculus                93.5%
1  Cc1ncc(-c2ccc3c(c2)N(c2cncc(N4CCOC4=O)n2)C(=O)C3(C)C)cn1  Mus musculus                87.1%
2  Cc1ncc(-c2ccc3c(c2)N(c2cncc(N4CCCC4=O)n2)C(=O)C3(C)C)cn1  Mus musculus                87.8%
3  Cc1ncc(-c2ccc3c(c2)N(c2cnc(C)c(N4CCOC4=O)n2)C(=O)C3(C)C)cn1  Mus musculus                89.7%
4  Cc1ncc(-c2ccc3c(c2)N(c2cncc(N4CCOCC4)n2)C(=O)C3(C)C)cn1  Mus musculus                  90%
5  Cc1ncc(-c2ccc3c(c2)N(c2cnc(C)c(N4CCOCC4)n2)C(=O)C3(C)C)cn1  Mus musculus                88.8%
6  Cc1ncc(-c2ccc3c(c2)N(c2ccc4c(n2)N(C)C(=O)C4(C)C)C(=O)C3(C)C)cn1  Mus musculus                99.5%
7  Cc1ncc(-c2ccc3c(c2)N(c2cnc(-n4ccnc4C)cn2)C(=O)C3(C)C)cn1  Mus musculus                96.3%
8  Cc1ncc(-c2ccc3c(c2)N(c2ccc4c(c2)N(C)C(=O)CO4)C(=O)C3(C)C)cn1  Mus musculus                93.8%
